Provide the reported apparent KD of MS2 coat protein of each item.
# Test system: MS2 coat protein
# Assay Notes: apparent KD of MS2 coat protein; higher = weaker reporter binding
# Stated Conditions: Eterna round: R107; input ligand: theophylline 20 uM
Number in µM, nothing else.

q: Reported apparent KD of MS2 coat protein for UGUCCUCAUGCGGCCGCCACUGUCGGCCGCCACUAAACCUGAGGAUCACCCGGGUAGGACCGGGACAGGACCGGGCAUGGGUGCU [#DoubleAptamer 4 #AlternativeMS2] : what is it?
a: 0.486

q: Again, but for CGAUAGAUACGAAGGAGCGACAUGAGGAUCACCCAUGUCUACCACGUCGAAAGACGCUCAUGUCAGGUAGGUCGCGUAUUUAUCG [Astros-Eli-mod8]
a: 0.124

q: Again, but for CCUCCUUGUACGGCCGCCACUGCAUCUCUGGAUACUCCGAUAAUACAUGAGGAUCACCCAUGUUACAGGACCGGGUAUAUAUUAC [theeternabot_sameState_MS2_Trp_B_19]
a: 0.0187

q: Again, but for UGACAUUGCUGCGAUACCAGACAUGAGGAUCACCCAUGUACCAAGGUAACCGAAAGGCAUGUCCCUUGGCAGCGCAGCAAUGUCU [MAT - Exclusion Theophlline B - Mod of Eli - D13]
a: 0.021

q: Again, but for ACAUGAGGAUCACCCAUGUAACAAACAGAAGGAGCGUGAAAGAACACAGGUAGGUCGCUGAACUUAAUGAAUACUCAUUAGAUCC [JR_Nu_SSArginiA_Sub027]
a: 0.0189

----------
# System: MS2 coat protein
# Assay Notes: apparent KD of MS2 coat protein; designed switch direction (-1 OFF switch, 1 ON switch): -1; higher = weaker reporter binding
# Stated Conditions: Eterna round: R95; input ligand: FMN 200 uM
# label = met if apparent KD of MS2 coat protein >= 0.1 µM else not met

q: State whether the measured apparent KD of MS2 coat protein reaches 0.1 µM, counting equality as reaching it, for UUUAAUUUUUUUUUUUUACAAGCUUUUUGCUCGUCUUAUACAUGAGGAUCACCCAUGUGGGUGGGAGAUAAAUUAUC [JMF 24] (puzzle: Sensor v3, turn-off variant 2)
a: not met

q: Again, but for ACAAGCUUUUUGUUCGUCUUAUAAUAUUAAAUAAAGAUAACAUGAGGAUCACCCAUGUAACAAAGACGGACUCAUGU [Sesor Array 17 - Jieux - Sensor v3, turn-off variant 2] (puzzle: Sensor v3, turn-off variant 2)
a: not met

q: Again, but for AUAAGCUUUUAUAUCCUUAACAUGAGGAUCACCCAUGUUCGUCUUAUGAUGGUCUGAUCCCUGAGGAUCGGACCGUU [JL-sv1-2.04 Brourd Mod] (puzzle: Sensor v3, turn-off variant 1)
a: not met

q: Again, but for UUUUUCGAACAAGCUUCGAACAUGAGGAUCACCCAUGUAGGUAGAUUUGAGUAGGUUUGGAAGUAAGCUCGUCUUAU [JR_SV3TOV1_Sub081] (puzzle: Sensor v3, turn-off variant 1)
a: met

----------
# Test system: MS2 coat protein
# Assay Notes: apparent KD of MS2 coat protein; designed switch direction (-1 OFF switch, 1 ON switch): -1; higher = weaker reporter binding
# Stated Conditions: Eterna round: R95; input ligand: none
# label = fulfilled if apparent KD of MS2 coat protein >= 200 nM else not fulfilled

q: State whether the measured apparent KD of MS2 coat protein reaches 200 nM, counting equality as reaching it, for UUUAAUUUUUUUUUUUUACAAGCUUUUUGCUCGUCUUAUACAUGAGGAUCACCCAUGUGGGUGAGAAGUAAAUUAUC [JMF 48] (puzzle: Sensor v3, turn-off variant 2)
a: fulfilled

q: Again, but for GAUUAUGCGAGCUUUAGGGACAUGAGGAUCACCCAUGUUCGUCUUAUUGGUCUAGAUACACUAACAUACCUAAAUCU [JMF 12] (puzzle: Sensor v3, turn-off variant 1)
a: not fulfilled

q: Again, but for AAAAAGGUAGGAUAUACGAAAAAAAAGGGUAGAAAAAAAACACAUGAGGAUCACCCAUGUAGAAGGACCAAAAC [salish99_ex2_r3_046] (puzzle: Exclusion 2)
a: not fulfilled

q: Again, but for AAUACAAUAAUUAAAGAGAUAGUACAUUAUACAAGUGAAACAUGAGGAUCACCCAUGUCCUCAUUUGCUCGUCUAAU [Hunting Buffalo with a BB Gun] (puzzle: Sensor v3, turn-off variant 2)
a: fulfilled

q: Again, but for CUGGUGUGAGGAUAUCAGGGCGCGCCCAAGGGCACGCCAAAUGAGAAGGCACAUGAGGAUCACCCAUGUGGGAC [Erzala] (puzzle: Exclusion 4)
a: not fulfilled

q: Again, but for AAAAGAACAGGAUAUUCGGGAAAUAACAUGAGGAUCACCCAUGUUAACGCGGGUGAGAACGAAGAAGGGUUCUAAA [Atusceon] (puzzle: Exclusion 5)
a: not fulfilled

q: Again, but for UUGGAACGAGGAUAUCGAUGGUGGAACAUGAGGAUCACCCAUGUAUGAGAUAGUGUAGUUCGAGAAGGCGUUAAGU [JR_E5_Sub054] (puzzle: Exclusion 5)
a: not fulfilled

q: Again, but for GAUUGACAUGAGGAUCACCCAUGUGAGGAUAUCGGCCGGACCUUGUUAGCUUCCAGCGCGAGAAGGCGCAUAGG [Exclusion 1 V36] (puzzle: Exclusion 1)
a: not fulfilled

q: Again, but for AAAAAGCGAGGAUAUGCAUAAGGACCCGGGAGGGAAGUCGAACAUGAGGAUCACCCAUGUAGAAGGCGCAAAAA [Exclss2-IV] (puzzle: Exclusion 2)
a: not fulfilled

q: Again, but for AGGAAGCAAGGAUAUACGAGGAGAAGGUGUCCAUCUAAAUGACAUGAGGAUCACCCAUGUAGAAGGUGCGAGAA [JR_Exclu2_Sub050] (puzzle: Exclusion 2)
a: not fulfilled

q: Again, but for UUAUAAACAUAGGAUAUCGAAUAAAUUAUUUAACGAGAAGGAUGAACAUGAGGAUCACCCAUGUGGUAUCAUGG [Mat - Exclusion 6 - JL Mod - D30] (puzzle: Exclusion 6)
a: fulfilled

q: Again, but for UGUGCGUAUGUGAGGAUAUGCUGGUCCUUGGAUCAGCAGAAGGCACAUGAGGAUCACCCAUGUGGUGUCGUACA [salish99_Bmod_Ex4_007] (puzzle: Brourd's mod of Exclusion 4)
a: fulfilled

q: Again, but for AAGAAACAUGAGGAUCACCCAUGUGAGGAUAUGAUCAAGAAAAGAAAAGAAAGAAGAUUCAGAAGGCACAAAGG [salish99-ex1_r3_056] (puzzle: Exclusion 1)
a: fulfilled

q: Again, but for AGUACUAACACGAAAGUGUUAGUACUAUAAGUUUGUGUUACAUGAGGAUCACCCAUGUCCUCAUAAGCUCGUCUUGU [Mat - Sensor v3 - Turn-off var 2 - D95] (puzzle: Sensor v3, turn-off variant 2)
a: fulfilled

q: Again, but for AGAGAGUCAGGAUAUCGAAGGUAGAGAAAAGGAGAGUGGUACGAGAAGGGACAUGAGGAUCACCCAUGUAGGUG [JR_Exclusion4)Sub013] (puzzle: Exclusion 4)
a: fulfilled

q: Again, but for AAGAAACAUGAGGAUCACCCAUGUGAGGAUAUGAAAAAGAAAAGAAAAGAAAGAAGAAUCAGAAGGCACAAAGC [salish99-ex1_r3_090] (puzzle: Exclusion 1)
a: not fulfilled

q: Again, but for AGAAGUAGUAACCGAUCCUACAUGAGGAUCACCCAUGUAGCAAGACGUGCACGCGAAGCUCGUCAGACUACCAGAUG [salish99_TOv1_r3_020] (puzzle: Sensor v3, turn-off variant 1)
a: fulfilled

q: Again, but for CUGAGCAGACGGAGAUCCAACAUGAGGAUCACCCAUGUCUCAAAAGCUUUUUGCUCGCCUUAUCCUCCUCUGUUCUC [Ererququce] (puzzle: Sensor v3, turn-off variant 1)
a: not fulfilled

q: Again, but for UAAAGCUUUGAGAUCCUUAACAUGAGGAUCACCCAUGUUCGUCUUAUGAUGGUCUGAUCCCUGAGGAUCGGACCGUU [Mat - Sensor v3 - turn-off var 1 - JL Mod - D5] (puzzle: Sensor v3, turn-off variant 1)
a: fulfilled

q: Again, but for UUUAUAAUUUCAAUCUUCGCCAGCAAACUAACACUGGCCACAUGAGGAUCACCCAUGUUUUUUGUUCGUUUUAUUCU [Cesoorso] (puzzle: Sensor v3, turn-off variant 2)
a: not fulfilled
